Target: Mitogen-activated protein kinase 14 (Homo sapiens, UniProt Q16539)
Sequence (Q16539 whole entry): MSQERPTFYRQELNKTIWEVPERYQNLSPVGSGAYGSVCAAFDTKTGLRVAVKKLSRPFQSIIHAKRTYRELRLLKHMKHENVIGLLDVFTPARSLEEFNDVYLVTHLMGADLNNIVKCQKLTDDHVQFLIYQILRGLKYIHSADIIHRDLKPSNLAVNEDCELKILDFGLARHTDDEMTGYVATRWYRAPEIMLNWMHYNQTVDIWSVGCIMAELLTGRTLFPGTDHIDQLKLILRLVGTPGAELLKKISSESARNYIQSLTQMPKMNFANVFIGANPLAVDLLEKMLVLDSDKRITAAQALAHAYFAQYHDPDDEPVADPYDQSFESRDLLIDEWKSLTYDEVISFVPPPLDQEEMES
Assay: Inhibition of p38alpha assessed as gamma-[33P]ATP incorporation by scintillation counting
quantity.measured: IC50 (nM)
The reply should contain only the number, in nM.

Which IC50 is reported for this compound? NS(=O)(=O)N1CCC(c2[nH]nc(-c3ccc(Cl)cc3)c2-c2ccncc2)CC1
14

Which IC50 is reported for this compound? CN1CCC(c2[nH]nc(-c3ccc(C(F)(F)F)cc3)c2-c2ccncc2)CC1
40.5

Which IC50 is reported for this compound? Clc1ccc(-c2n[nH]c(C3CCN(C4CCOCC4)CC3)c2-c2ccncn2)cc1
205

Which IC50 is reported for this compound? Fc1ccc(-c2n[nH]c(C3CCNCC3)c2-c2ccncc2)cc1
25.3

Which IC50 is reported for this compound? OCCN1CCC(c2[nH]nc(-c3ccc(Cl)cc3)c2-c2ccncc2)CC1
41

Which IC50 is reported for this compound? CN(C)C(=O)N1CCC(c2[nH]nc(-c3ccc(Cl)cc3)c2-c2ccncn2)CC1
88
